# Tested on: T47D
# testMethodNotes: NCI tumour cell line growth inhibition, 48 h
Activity calls are given as the source filed them. Rule as the data show it: active = GI50 up to about 1.1 µM and inactive = higher.

compound: O=CNC(Cc1c[nH]cn1)C(=O)O (stereo unspecified)
targetEntity: T47D
GI50: > 100 µM (inactive)
//
compound: CC(C)NC(=O)OCc1c(COC(=O)NC(C)C)n(C)c2c1ccc1ccsc12
targetEntity: T47D
GI50: 15.5 µM (inactive)
//
compound: CCCCCCCCCCCCN(CC(O)C(O)C(OC1OC(CO)C(O)C(O)C1O)C(O)CO)C(=O)CCCCCCCCCCC (stereo unspecified)
targetEntity: T47D
GI50: 28.1 µM (inactive)
//
compound: O=C(/C=C/C(=O)N1CCCC1)N1CCCC1
targetEntity: T47D
GI50: > 100 µM (inactive)
//
compound: O=C1C=CC(=O)C(CNc2ccc(C(=O)OCc3ccccc3)cc2)=C1
targetEntity: T47D
GI50: 1.77 µM (inactive)
//
compound: NC1=CN(CCCO)C2=N/C(=C\c3ccccc3)C(=O)N12
targetEntity: T47D
GI50: > 100 µM (inactive)
//
compound: COc1cc2c3cc1Oc1cc(ccc1O)C[C@@H]1c4c(cc(OC)c(O)c4Oc4ccc(cc4)C[C@@H]3N(C)CC2)CC[N+]1(C)C
targetEntity: T47D
GI50: 23.8 µM (inactive)
//
compound: Cn1cnc([N+](=O)[O-])c1Sc1nncc2[nH]cnc12
targetEntity: T47D
GI50: > 100 µM (inactive)
//
compound: Nc1ccn(CC(O)c2cc3ccccc3[nH]2)c(=O)n1 (stereo unspecified)
targetEntity: T47D
GI50: > 100 µM (inactive)
//
compound: CCC1NC(=O)C(NC(=O)c2ncccc2O)C(C)OC(=O)C(c2ccccc2)NC(=O)C2CC(=O)CCN2C(=O)C(Cc2ccccc2)N(C)C(=O)C2CCCN2C1=O (stereo unspecified)
targetEntity: T47D
GI50: > 100 µM (inactive)
//
compound: CN1CC[N+](C)=C1c1ccccc1
targetEntity: T47D
GI50: > 100 µM (inactive)

====

Let's go through some GI50 measurements on HCT-15 together.

molecule: Cc1cccc(C)c1NC(=O)CCC/C(CC(=O)c1ccc(F)cc1)=N\NC(=O)C(=O)NN
rel: >
GI50 (µM): 100

molecule: COc1ccc2occ(CCC(=O)O)c2c1
rel: >
GI50 (µM): 100

molecule: NC(=O)c1ccccc1NC(=O)C(=O)C(C(=O)c1ccc(Cl)c(Cl)c1)C1OC(=O)c2ccccc21 (centres undefined)
rel: =
GI50 (µM): 46.5

molecule: C\C(=N/N=C1/C(=C\N(C)C)C(=O)NC(=O)N1C)c1ccc(Cl)cc1
rel: >
GI50 (µM): 100

molecule: N#Cc1c(-c2ccc(Cl)cc2)c(C#N)c(=O)n(NS(=O)(=O)c2ccccc2)c1-c1ccccc1
rel: >
GI50 (µM): 25

molecule: COc1ccc(C(C#N)NC23CC4CC(CC(C4)C2)C3)cc1OC (centres undefined)
rel: >
GI50 (µM): 100

molecule: FC(F)(F)c1ccc2nc(Sc3ccc4ccccc4c3)cnc2c1
rel: =
GI50 (µM): 44.7

molecule: COC(=O)c1c2cccccc-2c(Cc2c3cccccc-3c(C(=O)OC)c2O)c1O
rel: >
GI50 (µM): 100

molecule: CN(C)C(=O)CC(C(=O)O)c1c[nH]c2ccccc12 (centres undefined)
rel: >
GI50 (µM): 100

molecule: Cn1cc2ccccc2c1-c1nc(F)nc(OCC(=O)[C@H]2CCC3[C@@H]4CCC5=CC(=O)CC[C@]5(C)C4[C@@H](O)C[C@@]32C)n1 (some centres undefined)
rel: =
GI50 (µM): 7.18

molecule: OCC(O)CNc1ncnc2ccccc12 (centres undefined)
rel: >
GI50 (µM): 100

molecule: CS[C@]12C(=O)C[C@@]3(C)[C@@H](CC[C@]3(O)C(=O)CO)[C@@H]1CCC1=CC(=O)CC[C@@]12C
rel: =
GI50 (µM): 60.7

molecule: COc1ccc(Nc2nc3c(N)cc(C(F)(F)F)cc3nc2-c2ccccc2)cc1OC
rel: =
GI50 (µM): 33.4

molecule: CCOC(=O)NC(=O)c1c[nH]c(=O)[nH]c1=O
rel: >
GI50 (µM): 100

molecule: CC(=O)/C=C/CCC(=O)/C=C/C(=O)OC(CCC(=O)/C=C/C(=O)O)CC(C)=O (centres undefined)
rel: =
GI50 (µM): 92.5

molecule: CC[C@H](C)[C@H]1NC(=O)C(C(C)=O)=C1O
rel: =
GI50 (µM): 79.8

molecule: OC(C/C=N/Nc1ccccc1)(C(F)(F)Cl)C(F)(F)Cl
rel: =
GI50 (µM): 5.2

molecule: C#C[C@]1(O)CC[C@H]2[C@@H]3CCC4=C/C(=N/OC(=O)c5cccc6c(=O)c7ccccc7[nH]c56)CC[C@@H]4[C@H]3CC[C@@]21C
rel: =
GI50 (µM): 36.5

molecule: O=C(O)c1ccccc1Sc1ccccc1[N+](=O)[O-]
rel: >
GI50 (µM): 100

molecule: Cc1ccc2c(c1)nc1n2C(N)=Nc2ccccc2S1
rel: =
GI50 (µM): 24.2

molecule: OC1(C(Sc2cc(C(F)(F)F)cc(C(F)(F)F)c2)Sc2cc(C(F)(F)F)cc(C(F)(F)F)c2)C=CCCC1 (centres undefined)
rel: =
GI50 (µM): 1.37

molecule: N#Cc1c2nc3ccccc3nc2n2ccc3ccccc3c12
rel: >
GI50 (µM): 100

molecule: NCCCCNCCCNC(=O)CNC(=O)CC(O)C(N)CCCC(NC(=O)C(CN)NC(=O)C(O)CNC(=O)CC(N)c1ccc(O)cc1)C(=O)O (centres undefined)
rel: >
GI50 (µM): 10

molecule: Cc1cc2nc(O)c(C(C)C(=O)c3ccc(Cl)cc3)nc2cc1C (centres undefined)
rel: =
GI50 (µM): 44.7

molecule: [N-]=[N+]=Nc1cc(=O)n(-c2ccccc2)c2ccccc12
rel: >
GI50 (µM): 100

molecule: O=c1[nH]nc(-c2cccc(Br)c2)[nH]1
rel: >
GI50 (µM): 100

molecule: O=C(O)c1ccccc1.[Ag]
rel: =
GI50 (µM): 21.6

molecule: COc1ccc(O)c(C#N)c1C#N.COc1ccc(OC)c(C#N)c1C#N
rel: >
GI50 (µM): 100

molecule: COc1cccc2c1[C@H](OC)[C@]13O[C@@]1(C2=O)[C@H](O)[C@H](C)[C@@](O)(C(=O)[C@@H]1O[C@H]1C)[C@@H]3O
rel: =
GI50 (µM): 0.255

molecule: CC(C)CCC[C@@H](C)C1CCC2[C@@H]3CCC4CC(CCC=C(c5cc(Cl)c(OC(=O)c6ccccc6)c(C(=O)O)c5)c5cc(Cl)c(OC(=O)c6ccccc6)c(C(=O)O)c5)CC[C@]4(C)C3CC[C@@]21C (some centres undefined)
rel: =
GI50 (µM): 46.1

molecule: CCOC(=O)Cn1c(=O)ccn(COCCO)c1=O
rel: >
GI50 (µM): 100

molecule: CN(C)c1ccc(/C=c2\sc3nnc(Cc4ccccc4)n3c2=O)cc1
rel: =
GI50 (µM): 20.2

molecule: COC1(OC)C[C@H](C)[C@@]23O[C@]24c2cc(O)c5c(c2N[C@H]3C#C/C=C\C#C[C@]14O)C(=O)c1ccccc1C5=O
rel: =
GI50 (µM): 0.005

molecule: Cc1cc(=O)[nH]c2cc(NC(=O)C(C)NC(=O)C(C)NC(=O)C(C)NC(=O)OC(C)(C)C)ccc12 (centres undefined)
rel: >
GI50 (µM): 15

molecule: C/C(=N\NC(=S)N1CCCCCCCCCCCC1)c1ccccn1
rel: =
GI50 (µM): 0.216

molecule: CCO/C=N\C1=C(C#N)SC2=N/C(=C\c3ccc(OC)cc3)C(=O)N21
rel: =
GI50 (µM): 85.9

molecule: CCCCCCCCCCCCCP(=O)(O)O
rel: >
GI50 (µM): 100

molecule: CCN(CC)C(=S)SCC(=O)Nc1nc2c(s1)CCCC2
rel: =
GI50 (µM): 24.6

molecule: CCOC(=O)/C(C#N)=C(O)/C(=C\c1ccc(Br)cc1)NC(=O)c1ccccc1
rel: =
GI50 (µM): 37.4

====

# Test system: IGROV-1
# testMethodNotes: NCI tumour cell line growth inhibition, 48 h
The source made the active and inactive calls. No stated cut-off is given here; in the data, active = GI50 up to about 1.1 µM and inactive = higher.
property: GI50

compound: CCN1CCN(c2nc3ccccc3nc2C(=O)c2ccc(OC)cc2)CC1
property: GI50
assayResult: 75.9 µM (inactive)
--
compound: N#CC(C(=N/NC(N)=S)/C(=N/NC(N)=S)C(C#N)c1ccc(Cl)cc1)c1ccc(Cl)cc1 (stereo not given)
property: GI50
assayResult: > 100 µM (inactive)
--
compound: O=S(=O)(O)c1cc(S(=O)(=O)O)c2c(/N=N/c3cccc4ccccc34)c(O)ccc2c1
property: GI50
assayResult: > 100 µM (inactive)
--
compound: CNC(=S)NC(=S)N(C)C
property: GI50
assayResult: > 100 µM (inactive)
--
compound: O=[N+]([O-])c1ccc(/C(=N/c2ccccc2)SS/C(=N\c2ccccc2)c2ccc([N+](=O)[O-])o2)o1
property: GI50
assayResult: 1.6 µM (inactive)
--
compound: N#Cc1cccc(/C=N/N/C(N)=N/O)c1
property: GI50
assayResult: 24.2 µM (inactive)
--
compound: Cc1ccc2oc(=O)c3c(O)c4cccc(OC5OC(C)C6O[C@@H](c7ccccc7)OC6C5OC5OC(C)C(O)C(O)C5O)c4c4oc(=O)c1c2c34 (stereo not given in full)
property: GI50
assayResult: 0.0264 µM (active)
--
compound: O=C(O)c1ccccc1/N=C/c1ccc(N(CCCl)CCCl)cc1
property: GI50
assayResult: > 100 µM (inactive)
--
compound: CCN(CC)C(=O)CCn1cc(F)c(=O)[nH]c1=O
property: GI50
assayResult: > 100 µM (inactive)
--
compound: O=[N+]([O-])c1ccc(-c2ccc([C@H]3CC(c4cc(F)c(Cl)cc4Cl)=NN3)o2)cc1
property: GI50
assayResult: 38.7 µM (inactive)

Entry source: ChEMBL document CHEMBL1201862
